Provenance of the data: patent US20240116877A1

# Test system: Ba/F3 KIT mutant cells
# assay_explanation: Ba/F3 mutant KIT Cell Proliferation Assays (resazurin)
# Assay type: cell-based
# particulars: Mus musculus, BaF3; Ba/F3 KIT exon11del-V654A mutant cell proliferation; read-out: exon11del-V654A IC50
observed_property: IC50

Which IC50 value is on record for `COCCOc1cc(F)c2c(Nc3ccc(NC(=O)NCCC(C)(C)C#N)cc3)ncnc2c1` ?
0.01 to 0.1 µM

----------
# System: Ba/F3 KIT mutant cells
# assay_explanation: Ba/F3 mutant KIT Cell Proliferation Assays (resazurin)
# Assay type: cell-based
# particulars: Mus musculus, BaF3; Ba/F3 KIT exon11del-V654A mutant cell proliferation; read-out: exon11del-V654A IC50
observed_property: IC50

Sample records with IC50:
So what's the measured IC50 for this one? `COCCOc1cc(F)c2c(Nc3ccc(NC(=O)NCCOC(C)(C)C)cc3)ncnc2c1`
≤ 10 nM

Also `COCCOc1cc(F)c2c(Nc3ccc(NC(=O)CC(=O)N4C5CCC4CC5)cc3)ncnc2c1` , if possible.
100 to 1000 nM

Others:
I am curious: what IC50 value has been reported for `COCCOc1cc(F)c2c(Nc3ccc(NC(=O)NCCC(C)(C)F)cc3F)ncnc2c1` ?
≤ 10 nM

----------
# Tested on: Ba/F3 KIT mutant cells
# assay_explanation: Ba/F3 mutant KIT Cell Proliferation Assays (resazurin)
# Format: cell-based
# particulars: Mus musculus, BaF3; Ba/F3 KIT AYdup mutant cell proliferation; read-out: AYdup IC50
Below, each of the compounds is paired with its reported IC50 value.

Looking for the measured IC50 of `COCCOc1cc(F)c2c(Nc3ccc(NC(=O)CC4CCC(F)(F)CC4)cc3)ncnc2c1` , can you help?
≤ 10 nM

New cases:
Dear colleague, I am looking for the recorded IC50 of the following compound: `COCCOc1cc(F)c2c(Nc3ccc(NC(=O)NCCN4CCCC4=O)cc3)ncnc2c1`
10 to 100 nM

Also `COCCOc1cc(F)c2c(Nc3ccc(NC(=O)CC(=O)N4CC(C)(C)C4)cc3)ncnc2c1` , if possible.
≤ 10 nM

What do you have for `COCCOc1cc(F)c2c(Nc3ccc(NC(=O)CC(=O)NC4CCCC4)cc3)ncnc2c1` ?
≤ 10 nM

Also check `COCCOc1cc(F)c2c(Nc3ccc(NC(=O)CC(=O)NC(C)(C)C4CC4)cc3)ncnc2c1`
≤ 10 nM

What about this compound? `COCCOc1cc(F)c2c(Nc3ccc(NC(=O)CC(=O)NC4CCC4)cc3)ncnc2c1`
≤ 10 nM

Would you mind doing `COCCOc1cc(F)c2c(Nc3ccc(NC(=O)NCCOC(F)(F)F)cc3)ncnc2c1` as well?
≤ 10 nM

Lookup `CC(C)(C)CNC(=O)CC(=O)Nc1ccc(Nc2ncnc3cc(OCCN4CCOCC4)cc(F)c23)cc1`
≤ 10 nM

What do you get for `COCCOc1cc(F)c2c(Nc3ccc(NC(=O)NCCC(C)C)cc3)ncnc2c1` ?
≤ 10 nM

Then what about the compound `COCCOc1cc(F)c2c(Nc3ccc(NC(=O)NCCC4(C#N)CC4)cc3)ncnc2c1` ?
≤ 10 nM

Would you kindly repeat that for `COCCOc1cc(F)c2c(Nc3ccc(NC(=O)NCCC4CC4)cc3)ncnc2c1` ?
≤ 10 nM

Also `COCCOc1cc(F)c2c(Nc3ccc(NC(=O)CC(=O)NC4CCCCC4)cc3)ncnc2c1` ?
≤ 10 nM

Check `COCCOc1cc(F)c2c(Nc3ccc(NC(=O)CC4CCC(C)(C)CC4)cc3)ncnc2c1` too.
10 to 100 nM

Next record, please: `COCCOc1cc(F)c2c(Nc3ccc(NC(=O)COCC(F)(F)F)cc3)ncnc2c1`
10 to 100 nM

Could you do the same for `COCCOc1cc(F)c2c(Nc3ccc(NC(=O)NCCC(C)(C)OC)cc3)ncnc2c1` , please?
≤ 10 nM

What do you have for `CO[C@H](C)COc1cc(F)c2c(Nc3ccc(NC(=O)NCCC(C)(C)F)cc3)ncnc2c1` ?
≤ 10 nM

Next entry: `COCCOc1cc(F)c2c(Nc3ccc(NC(=O)COCC(C)C)cc3)ncnc2c1`
≤ 10 nM

----------
# Tested on: Ba/F3 KIT mutant cells
# assay_explanation: Ba/F3 mutant KIT Cell Proliferation Assays (resazurin)
# Type: cell-based
# particulars: Mus musculus, BaF3; Ba/F3 KIT exon11del-V654A mutant cell proliferation; read-out: exon11del-V654A IC50
# Source text: Ba/F3 KIT Mutant Cell Line Transduction and Expansion Several different KIT cDNA encoding various primary and secondary mutations were cloned into a pLV(Exp]-CMV>(cDNA):IRES:puro vector. These vectors were constructed and packaged by VectorBuilder. […] A serial dilution of test compound was dispensed into a 384-well black clear bottom plate (Corning, Corning, NY). […] Plates were read on a Synergy2 reader (Biotek, Winooski, VT) using an excitation of 540 nm and an emission of 600 nm. […]
observed_property: IC50

Form field: reported IC50 of `CC(C)(F)CCNC(=O)Nc1ccc(Nc2ncnc3cc(OC4CCC4)cc(F)c23)cc1`
10 to 100 nM

***
GET /values?readout=IC50&item= `CC(C)(C)CNC(=O)CC(=O)Nc1ccc(Nc2ncnc3cc(OCCN4CCOCC4)cc(F)c23)cc1`
≤ 10 nM

Try this molecule next: `COCCOc1ccc2ncnc(Nc3ccc(NC(=O)NCCC(C)(C)OC)cc3)c2c1F`
100 to 1000 nM

Next molecule up: `COc1cc(F)c2c(Nc3ccc(NC(=O)CC(=O)NCC(C)(C)C)cc3)ncnc2c1`
10 to 100 nM

Same for `COCCOc1cc(F)c2c(Nc3ccc(NC(=O)CC(=O)N4C[C@@H](C)O[C@@H](C)C4)cc3)ncnc2c1`
100 to 1000 nM

Now give it for `COCCOc1cc(F)c2c(Nc3ccc(NC(=O)CC(=O)NCC(C)(C)OC)cc3)ncnc2c1` too.
10 to 100 nM

Another molecule: `COCCOc1cc(F)c2c(Nc3ccc(NC(=O)CC(=O)N4CCC(F)(F)CC4)cc3)ncnc2c1`
100 to 1000 nM

And what about the molecule `COCCOc1cc(F)c2c(Nc3ccc(NC(=O)CC(=O)NCCC(C)C)cc3)ncnc2c1` ?
10 to 100 nM

----------
# System: Ba/F3 KIT mutant cells
# assay_explanation: Ba/F3 mutant KIT Cell Proliferation Assays (resazurin)
# Assay type: cell-based
# particulars: Mus musculus, BaF3; Ba/F3 KIT exon11del-V654A mutant cell proliferation; read-out: exon11del-V654A IC50
observed_property: IC50

Which measured IC50 value corresponds to `COCCOc1cc(F)c2c(Nc3ccc(NC(=O)CC(=O)NC4(C(C)C)CC4)cc3)ncnc2c1` ?
≤ 10 nM

Now turn to the next compound.
What value of IC50 has been reported for the following compound? `CNC(=O)COc1cc(F)c2c(Nc3ccc(NC(=O)NCCC(C)(C)F)cc3)ncnc2c1`
10 to 100 nM

----------
So I've got IC50 readings for c-KIT kinase (uKIT) (Homo sapiens (Human), UniProt P10721), take a look.

Could you share which IC50 value was measured for `COCCOc1cc(F)c2c(Nc3ccc(NC(=O)CC(=O)NCC(C)(C)C)cc3)ncnc2c1` ?
10 to 100 nM

What do we get for `COCCOc1ccc2ncnc(Nc3ccc(NC(=O)NCCC(C)(C)F)cc3)c2c1F` ?
100 to 1000 nM

Can you check `COCCOc1ccc2ncnc(Nc3ccc(NC(=O)NCCC(C)(C)C#N)cc3)c2c1F` next?
10 to 100 nM

Try `COCCOc1cc(F)c2c(Nc3ccc(NC(=O)CC(=O)NCC(C)C)cc3)ncnc2c1` next.
10 to 100 nM

Here is the next compound: `COCCOc1ccc2ncnc(Nc3ccc(NC(=O)CC(=O)NC(C)(C)C)cc3)c2c1F`
> 1000 nM

Continue with `COCCOc1cc(F)c2c(Nc3ccc(NC(=O)NCCC(C)(C)OC)cc3)ncnc2c1`
≤ 10 nM

Another compound to look at: `COCCOc1cc(F)c2c(Nc3ccc(NC(=O)CC(=O)NCC4(C)CC4)cc3)ncnc2c1`
≤ 10 nM

Now turn to the next compound.
Fill in: IC50 of `COCCOc1cc(F)c2c(Nc3ccc(NC(=O)N[C@H]4CC[C@@H](C(F)(F)F)CC4)cc3)ncnc2c1` is ___
≤ 10 nM

----------
Known IC50 of a selection of compounds
# Tested on: Ba/F3 KIT mutant cells
# assay_explanation: Ba/F3 mutant KIT Cell Proliferation Assays (resazurin)
# Assay type: cell-based
# particulars: Mus musculus, BaF3; Ba/F3 KIT exon11del-V654A mutant cell proliferation; read-out: exon11del-V654A IC50

Short answer please: IC50, Ba/F3 KIT mutant cells, entry COCCOc1cc(F)c2c(Nc3ccc(NC(=O)CC(=O)N4CCOCC4)cc3)ncnc2c1 [Example 185]
> 1000 nM
